# Tested on: CAKI-1 renal
# testDescription: NCI tumour cell line growth inhibition, 48 h
measuredParameter: TGI

>  <molecule>
Cc1ccc(Nc2nc(=O)c3c4ccccc4n(C(=O)OC(C)(C)C)c3s2)cc1

>  <studyTarget>
CAKI-1 renal

>  <measValue>
66 µM

$$$$

Provide only the value of recorded TGI for `O=[S@@]1Nc2ccc(Br)cc2S1`
> 100 µM

Provide only the value of recorded TGI for `O=C1NC(N/N=C/c2ccccc2)=N/C1=C\c1ccco1`
> 100 µM

Provide only the value of recorded TGI for `Cn1ccnc1C(=O)/C=C/c1ccc(CC(=O)Nc2ccc(Br)cc2)cc1`
11.6 µM

Provide only the value of recorded TGI for `O=c1c2cccnc2n2n1Cc1ccccc1C2`
> 100 µM

----------
# Tested on: SF-295 CNS
# testDescription: NCI tumour cell line growth inhibition, 48 h; in the data active = GI50 below about 0.43 µM; inactive = the rest
Your answer must be one of the following: active, inactive

>  <compound>
Cn1ccnc1C(=O)/C=C/c1ccc(CC(=O)Nc2ccc(Br)cc2)cc1

>  <classification>
inactive

$$$$
>  <compound>
CCCCCCCCSC1=CC(=O)c2nc3ccccc3c3ccnc1c23

>  <classification>
inactive

$$$$
>  <compound>
COc1cc(C(=O)/C=C/c2sc(Cl)nc2Cl)cc(OC)c1OC

>  <classification>
inactive

$$$$

Per the records of this test, what outcome belongs to O=c1n(CC2CO2)c(=O)n(CC2CO2)n1CC1CO1 (configuration not stated) ?
inactive

Per the records of this test, what outcome belongs to CC1=C(C(=O)Nc2ccc(F)c(Cl)c2)C(c2ccc(Cl)cc2)NC(=O)N1 (configuration not stated) ?
inactive

Per the records of this test, what outcome belongs to CCOc1ccccc1-n1c(CN2CCN(C(=O)COc3ccc(CNCCCCCCN4C5CCCC4CC(OC(=O)Nc4cc(C)ccc4OC)C5)cc3)CC2)nc2ccccc2c1=O (configuration not stated) ?
inactive

Per the records of this test, what outcome belongs to NC(CSC(c1ccccc1)(c1ccccc1)c1ccc2c(c1)OCO2)C(=O)O (configuration not stated) ?
active

Per the records of this test, what outcome belongs to `CCOC(=O)Nc1nc2ccc(OCC)cc2s1` ?
inactive

Per the records of this test, what outcome belongs to `CCCCCCCC(=O)SCC/C=C/[C@@H]1CC(=O)NCc2cccc(n2)C2=N[C@@](C)(CS2)C(=O)N[C@@H](C(C)C)C(=O)N1` ?
inactive

Per the records of this test, what outcome belongs to CC(C)c1ccc(C(C)C(=O)N(CC2=C(C(C)c3ccccn3)c3ccccc3C2)C(C)C)cc1 (configuration not stated) ?
inactive

Per the records of this test, what outcome belongs to COc1cc2c(c(OC)c1O)C(=O)C(OC)C(c1ccc(O)c(O)c1)O2 (configuration not stated) ?
inactive

Per the records of this test, what outcome belongs to `CSc1ccccc1C#C/C=C\C#Cc1ccccc1N1CCCC1=O` ?
inactive

----------
# Tested on: MOLT-4 leukemia
# testDescription: NCI tumour cell line growth inhibition, 48 h
GI50 reference

>  <compound>
Cc1cc2nc(C(Cl)Cl)nc(-c3ccc(Cl)cc3)n2n1

>  <studyTarget>
MOLT-4 leukemia

>  <GI50>
1.01 µM

$$$$
>  <compound>
COc1ccc(-c2cc(-c3ccc(Nc4nc(Nc5ccccc5)nc(Nc5ccc(Cl)cc5)n4)cc3)nc(N)c2C#N)cc1

>  <studyTarget>
MOLT-4 leukemia

>  <GI50>
0.958 µM

$$$$
>  <compound>
NC1CCC(Nc2nc(NCc3ccc(-c4ccco4)nc3)c3ncn(C4CCCC4)c3n2)CC1 (configuration not stated)

>  <studyTarget>
MOLT-4 leukemia

>  <GI50>
0.0222 µM

$$$$
>  <compound>
CC1(C)COC(c2ccc(C(F)(F)F)cc2C(O)c2ccc3ccccc3c2)=N1 (configuration not stated)

>  <studyTarget>
MOLT-4 leukemia

>  <GI50>
> 100 µM

$$$$
>  <compound>
O=C(NCCNc1nccc(-c2c(-c3cccc(O)c3)nc3sccn23)n1)c1ccccc1O

>  <studyTarget>
MOLT-4 leukemia

>  <GI50>
4.87 µM

$$$$

Provide only the value of recorded GI50 for `Nc1cc2nc3ccccc3sc-2cc1=O`
4.26 µM

----------
# Tested on: IGROV1 ovarian
# testDescription: NCI tumour cell line growth inhibition, 48 h
TGI reference

Previously resolved entries follow.
>  <molecule>
O=C(N/C(=C\c1cc(Cl)ccc1Cl)c1nc2[nH]c(=S)[nH]c(=O)c2[nH]1)c1ccccc1

>  <studyTarget>
IGROV1 ovarian

>  <TGI>
> 70.6 µM

$$$$
>  <molecule>
O=C1c2cccnc2-c2nc(-c3ccccc3[N+](=O)[O-])cc3c2c1nc1ccccc13

>  <studyTarget>
IGROV1 ovarian

>  <TGI>
83.3 µM

$$$$

Provide only the value of recorded TGI for CN(CC(=O)N1CC(CCl)c2ccc([N+](=O)[O-])cc21)CC(=O)N1CC(CCl)c2ccc([N+](=O)[O-])cc21 (configuration not stated)
> 100 µM

Provide only the value of recorded TGI for `Cc1nnc2n1N=C(c1ccccc1)/C(=C/c1ccc(-c3ccc(Cl)cc3)o1)S2`
36.6 µM

Provide only the value of recorded TGI for O=C1NC2(CCCCC2)C2CCCCC(O)C12 (configuration not stated)
> 100 µM

----------
TGI reference
# System: SK-MEL-2 melanoma
# testDescription: NCI tumour cell line growth inhibition, 48 h
Numeric answer only, unit µM assumed.

Provide only the value of recorded TGI for `O=C(CCl)N1c2ccccc2Oc2ccc3ccccc3c21`
2.67

Provide only the value of recorded TGI for `O=C1c2cccnc2-c2nc(-c3ccccc3[N+](=O)[O-])cc3c2c1nc1ccccc13`
53.1

Provide only the value of recorded TGI for `Cc1ccc(N=N/C(=N/NC(=O)c2cc(Cl)ccc2O)c2ccc(N(CCC#N)CCC#N)cc2C)cc1`
68.4

Provide only the value of recorded TGI for `Cc1ccc(Nc2nc(=O)c3c4ccccc4n(C(=O)OC(C)(C)C)c3s2)cc1`
59.2

Provide only the value of recorded TGI for `COc1cc(/C=C/c2cc(/C=C/c3ccc(O)c(OC)c3)n(C(=O)Nc3ccc(F)cc3)n2)ccc1O`
3.32

----------
# Tested on: HT29 colon
# testDescription: NCI tumour cell line growth inhibition, 48 h
measuredParameter: TGI

>  <compound>
CN(C)c1ccc(C2CC(c3ccc4ccccc4c3O)=NN2)cc1 (stereo not given)

>  <TGI>
> 100 µM

$$$$

Provide only the value of recorded TGI for `Cc1ccc(-c2n[nH]c(Cc3nc(-c4ccc(C)cc4)n[nH]3)n2)cc1`
> 100 µM

Provide only the value of recorded TGI for `CC1=C(C(=O)Nc2ccccc2C)C(c2ccco2)C(C(=O)Nc2ccccc2C)=C(C)N1C`
> 100 µM

Provide only the value of recorded TGI for CCCCCCNC(=O)C(C)C1CCC2(C)C=CC(=O)C(C)=C2C1O (stereo not given)
> 100 µM

Provide only the value of recorded TGI for `CNC(=O)c1ccccc1Nc1nc(Nc2ccc(N3CCOCC3)cc2OC)ncc1Cl`
4.73 µM

----------
TGI reference
# Tested on: KM12 colon
# testDescription: NCI tumour cell line growth inhibition, 48 h
Numeric answer only, unit µM assumed.

>  <smilesRecord>
COc1cc2nc(C)nc(N[C@H](C)c3cc(N)cc(C(F)(F)F)c3)c2cc1O[C@H]1CCOC1

>  <TGI / µM>
30

$$$$

Query compound follows.
Print KM12 colon TGI for `CSc1ccc(/C=C2\CN(C)C/C(=C\c3ccc(SC)cc3)C2=O)cc1` .
44.8

----------
# Tested on: SF-539 CNS
# testDescription: NCI tumour cell line growth inhibition, 48 h
TGI reference

Previously resolved entries follow.
>  <compound>
Cc1ccc(S(=O)(=O)NC(=O)NC(CC(N)=O)C(=O)O)cc1 (stereo not given)

>  <measValue>
> 100 µM

$$$$
>  <compound>
CCCCCCCC(=O)SCC/C=C/[C@@H]1CC(=O)NCc2cccc(n2)C2=N[C@@](C)(CS2)C(=O)N[C@@H](C(C)C)C(=O)N1

>  <measValue>
> 33.3 µM

$$$$
>  <compound>
O=C1C=Cc2c(Br)sc(Br)c21

>  <measValue>
> 100 µM

$$$$
>  <compound>
Cc1ccc(Nc2nc(=O)c3c4ccccc4n(C(=O)OC(C)(C)C)c3s2)cc1

>  <measValue>
79.8 µM

$$$$

Query compound follows.
Provide only the value of recorded TGI for CCOC(=O)C1=C(C)CC2C(=O)OC(=O)C2C1(C)C (stereo not given)
> 100 µM

----------
# Test system: SF-268 CNS
# testDescription: NCI tumour cell line growth inhibition, 48 h
measuredParameter: GI50

Provide only the value of recorded GI50 for `CN(C)CCCNC1=C(Cl)C(=O)c2ccccc2C1=O`
4.88 µM

Provide only the value of recorded GI50 for `COc1cc(C(=O)/C=C/c2sc(Cl)nc2Cl)cc(OC)c1OC`
1.79 µM

Provide only the value of recorded GI50 for `CCOC(=O)Nc1nc2ccc(OCC)cc2s1`
84.6 µM

Provide only the value of recorded GI50 for `O=C(NCCNc1nccc(-c2c(-c3cccc(O)c3)nc3sccn23)n1)c1ccccc1O`
5.4 µM

Provide only the value of recorded GI50 for NC(CSC(c1ccccc1)(c1ccccc1)c1ccc2c(c1)OCO2)C(=O)O (stereo not given)
0.82 µM

Provide only the value of recorded GI50 for `CCCCCCCC(=O)SCC/C=C/[C@@H]1CC(=O)NCc2cccc(n2)C2=N[C@@](C)(CS2)C(=O)N[C@@H](C(C)C)C(=O)N1`
2.28 µM

Provide only the value of recorded GI50 for `Cn1ccnc1C(=O)/C=C/c1ccc(CC(=O)Nc2ccc(Br)cc2)cc1`
3.34 µM
